# runDescription: Everolimus pharmacokinetics in whole blood
# Assay type: in vivo, human
# conditionsUsed: human, whole blood, po, 5 mg

[
  {
    "smilesRepresentation": "CO[C@H]1C[C@@H]2CC[C@@H](C)[C@@](O)(O2)C(=O)C(=O)N2CCCC[C@H]2C(=O)O[C@H]([C@H](C)C[C@@H]2CC[C@@H](OCCO)[C@H](OC)C2)CC(=O)[C@H](C)/C=C(\\C)[C@@H](O)[C@@H](OC)C(=O)[C@H](C)C[C@H](C)/C=C/C=C/C=C/1C",
    "Cmax": "24.4 ng/mL"
  }
]

---

# runDescription: Everolimus pharmacokinetics in whole blood
# Assay type: in vivo, human
# conditionsUsed: human, whole blood, po, 5 mg

[
  {
    "smilesRepresentation": "CO[C@H]1C[C@@H]2CC[C@@H](C)[C@@](O)(O2)C(=O)C(=O)N2CCCC[C@H]2C(=O)O[C@H]([C@H](C)C[C@@H]2CC[C@@H](OCCO)[C@H](OC)C2)CC(=O)[C@H](C)/C=C(\\C)[C@@H](O)[C@@H](OC)C(=O)[C@H](C)C[C@H](C)/C=C/C=C/C=C/1C",
    "Tmax": "0.98 to 6.02 h"
  }
]
